# assay-system: Human immunodeficiency virus type 1 protease (Human immunodeficiency virus 1, UniProt Q72874)
# method-summary: Inhibition of plasmid pET9c-PR expressing HIV-1 protease (No inhibition)
recorded-metric: IC50

COC(=O)CCCOc1ccc2ccc(OCCCC(=O)N[C@H](C(=O)N[C@@H](CC(C)C)C(=O)N[C@H](C(=O)OC)C(C)C)C(C)C)cc2c1 :: Not Active
CC(C)C[C@H](NC(=O)[C@@H](NC(=O)CCCOc1cccc(OCCCC(=O)N[C@H](C(=O)N[C@@H](CC(C)C)C(=O)N[C@H](C(=O)O)C(C)C)C(C)O)c1)C(C)O)C(=O)N[C@H](C(=O)O)C(C)C (stereo partly drawn) :: Not Active
COC(=O)[C@@H](NC(=O)[C@H](CC(C)C)NC(=O)[C@@H](NC(=O)CCCOc1ccc2ccc(OCCCC(=O)N[C@H](C(=O)N[C@@H](CC(C)C)C(=O)N[C@H](C(=O)OC)C(C)C)C(C)O)cc2c1)C(C)O)C(C)C (stereo partly drawn) :: Not Active

----------
# assay-system: Human immunodeficiency virus type 1 protease (Human immunodeficiency virus 1, UniProt Q72874)
# method-summary: The compound was tested for HIV-1 protease inhibitory activity against plasmid pET9c-PR expressing HIV-1 protease.
Numbered stars: 1 amine (or outer) side, 2 acyl side, 3 side chain; on linkers, the order of the positions; unused ones are H or OH. Bridge positions count the residues as written; N and C are the ends. Square brackets hold non-standard residues; d marks the D form. Peptide text beside a SMILES is read from it. I, II: the chains in the order shown. * marks the point of attachment. ξ: configuration not given here. Naphthalene(2,7-(OC3H6CO)2) = O=C(CCCOc1ccc2ccc(OCCCC(=O)[*:2])cc2c1)[*:1]; X1 = COC(=O)CCCOc1ccc2ccc(OCCCC(=O)*)cc2c1; Thr(3ξ) = CC(O)[C@H](N)C(=O)O
recorded-metric: log10 IC50 (log10 of the value in µM)
Scale: decimal log of IC50, IC50 in µM.

Use the examples below as a reference point.
COC(=O)[C@H](Cc1ccccc1)NC(=O)[C@H](CC(N)=O)NC(=O)[C@H](CC(C)C)NC(=O)[C@@H](NC(=O)CCCOc1cccc(OCCCC(=O)N[C@H](C(=O)N[C@@H](CC(C)C)C(=O)N[C@@H](CC(N)=O)C(=O)N[C@@H](Cc2ccccc2)C(=O)OC)C(C)O)n1)C(C)O (some centres undefined) :: 1.00
CC[C@@H](C)[C@H](NC(=O)[C@@H](NC(=O)CCCOc1cccc(OCCCC(=O)N[C@H](C(=O)N[C@H](C(=O)N[C@H](C(=O)OC)C(C)C)[C@H](C)CC)C(C)O)n1)C(C)O)C(=O)N[C@H](C(=O)OC)C(C)C (some centres undefined) :: 0.62
COC(=O)[C@@H](NC(=O)[C@H](CC(C)C)NC(=O)[C@@H](NC(=O)CCCOc1ccc2ccc(OCCCC(=O)N[C@H](C(=O)N[C@@H](CC(C)C)C(=O)N[C@H](C(=O)OC)C(C)C)C(C)C)cc2c1)C(C)C)C(C)C :: 0.30
COC(=O)[C@H](CC(C)C)NC(=O)[C@H](CC(C)C)NC(=O)CNC(=O)CCCOc1cccc(OCCCC(=O)NCC(=O)N[C@@H](CC(C)C)C(=O)N[C@@H](CC(C)C)C(=O)OC)n1 :: 1.20
COC(=O)[C@@H](NC(=O)[C@H](CC(C)C)NC(=O)[C@@H](NC(=O)CCCOc1cccc(OCCCC(=O)N[C@H](C(=O)N[C@@H](CC(C)C)C(=O)N[C@H](C(=O)OC)C(C)C)C(C)C)n1)C(C)C)C(C)C :: 0.48
CC(C)C[C@H](NC(=O)[C@@H](NC(=O)CCCOc1ccc2ccc(OCCCC(=O)N[C@H](C(=O)N[C@@H](CC(C)C)C(=O)N[C@H](C(=O)O)C(C)C)C(C)O)cc2c1)C(C)O)C(=O)N[C@H](C(=O)O)C(C)C (some centres undefined) :: 1.00

Items follow; give log10 IC50 for each.
1. COC(=O)[C@H](Cc1ccccc1)NC(=O)[C@H](CC(N)=O)NC(=O)[C@H](CC(C)C)NC(=O)[C@@H](NC(=O)CCCOc1ccc2ccc(OCCCC(=O)N[C@H](C(=O)N[C@@H](CC(C)C)C(=O)N[C@@H](CC(N)=O)C(=O)N[C@@H](Cc3ccccc3)C(=O)OC)C(C)O)cc2c1)C(C)O (some centres undefined) (I: [Thr(3ξ)]LNF-OMe / II: [Thr(3ξ)]LNF-OMe; linker I:N-II:N via Naphthalene(2,7-(OC3H6CO)2))
2. CC(C)C[C@H](NC(=O)[C@@H](NC(=O)CCCOc1cccc(OCCCC(=O)N[C@H](C(=O)N[C@@H](CC(C)C)C(=O)N[C@H](C(=O)O)C(C)C)C(C)O)n1)C(C)O)C(=O)N[C@H](C(=O)O)C(C)C (some centres undefined)
3. COC(=O)CCCOc1ccc2ccc(OCCCC(=O)N[C@H](C(=O)N[C@@H](CC(C)C)C(=O)N[C@H](C(=O)N[C@H](C(=O)OC)C(C)C)C(C)C)C(C)O)cc2c1 (some centres undefined) (X1-[Thr(3ξ)]LVV-OMe)

[0.64, 1.53, 1.00]
